- test.name: Laser-capture microdissection and LC/MS-MS drug quantification in liver lesions and surrounding tissue, mouse IAC model
- Type: in vivo
- conditions.used: female, CD1, mouse, in vivo, 5 mg/kg, 5 mg/kg once daily; 24 hours post third dose (steady-state); read-out: drug level in liver lesions
Numbered stars: 1 amine (or outer) side, 2 acyl side, 3 side chain; on linkers, the order of the positions; unused ones are H or OH. Bridge positions count the residues as written; N and C are the ends. Square brackets hold non-standard residues; d marks the D form. Peptide text beside a SMILES is read from it. * marks the point of attachment. hTyr(3S-OH,4S-OH,3'-OSO3H) = N[C@H](C(=O)O)[C@H](O)[C@@H](O)c1ccc(O)c(OS(=O)(=O)O)c1; Orn(4R-OH,5R-OH) = O=C([C@H](C[C@@H](O)[C@@H](O)N[*:3])N[*:1])[*:2]; Pro(3S-OH,4S-Me) = C[C@H]1CN[C@H](C(=O)O)[C@H]1O; X1 = CCCCCOc1ccc(-c2cc(-c3ccc(C(=O)*)cc3)no2)cc1; Gln(3R-OH) = NC(=O)C[C@@H](O)[C@H](N)C(=O)O; Hyp = O=C(O)[C@@H]1C[C@@H](O)CN1
quantity.name: concentration at 24 h (ng/mL)

molecule	quantity.name	measured.value
CCCCCOc1ccc(-c2cc(-c3ccc(C(=O)N[C@H]4C[C@@H](O)[C@@H](O)NC(=O)[C@@H]5[C@@H](O)[C@@H](C)CN5C(=O)[C@H]([C@H](O)CC(N)=O)NC(=O)[C@H]([C@H](O)[C@@H](O)c5ccc(O)c(OS(=O)(=O)O)c5)NC(=O)[C@@H]5C[C@@H](O)CN5C(=O)[C@H]([C@@H](C)O)NC4=O)cc3)no2)cc1 [micafungin] (X1-[Orn(4R-OH,5R-OH)]T[Hyp][hTyr(3S-OH,4S-OH,3'-OSO3H)][Gln(3R-OH)][Pro(3S-OH,4S-Me)]; lactam 1-C)	concentration at 24 h	4900

From: patent US20200164023A1
